- target entity: galanin receptors
- experiment description: [125I]-galanin displacement, equilibrium binding in rat ventral hippocampal membranes
- condition set: membranes from rat ventral hippocampus
Non-standard residues stand in square brackets, D forms with d. Residues, ends and D or L forms follow the SMILES beside them. *: point of attachment. Fmoc = O=C(OCC1c2ccccc2-c2ccccc21)*; AMC = Cc1cc(=O)oc2cc(N*)ccc12; Cha = N[CH](CC1CCCCC1)C(=O)O
property: Ki

INPUT: Endpoint output: Ki of Cc1cc(=O)oc2cc(NC(=O)C(CCCCN)NC(=O)C(CC3CCCCC3)NC(=O)OCC3c4ccccc4-c4ccccc43)ccc12 (stereo not shown) [galnon] (Fmoc-[Cha]-Lys-{AMC}; configuration not given here) . Value?
OUTPUT: 4.8 µM

The values you see were collected from patent US6747060B2.
